Hello, the source for this data is paper PMC9851200, in case you need it.

- Tested on: SH-SY5Y cells
- procedure-summary: Nuclear count from microscopy images (cellular growth and toxicity); further: reference of the scale not given here
- experimental-setup: PKIS2 primary screening
Parameter Nuclear Count: see the listing below.

{"columns": ["compound", "tgt", "Nuclear Count"],
 "data": [
  ["COc1ccc(Nc2nccc(NCCNC(=O)Nc3cc(C)ccc3C)n2)cc1", "SH-SY5Y cells", 88.82],
  ["CN1CCN(CCCNc2nccc(-c3c(-c4ccc(F)cc4)nn4cc(C(F)(F)F)ccc34)n2)CC1 [UNC10225376A]", "SH-SY5Y cells", 97.99],
  ["O=c1cc(N2CCOCC2)nc2n(Cc3cccc4ccccc34)ccn12 [UNC10225439A]", "SH-SY5Y cells", 128.21],
  ["COc1ccc(NC(=O)Nc2ccc(C)c(-c3ccc(C(=O)Nc4ccncc4)cc3)c2)cc1 [UNC10225445A]", "SH-SY5Y cells", 96.32],
  ["CNc1cc(-c2ccc3c(N)n[nH]c3c2)nc(N)n1", "SH-SY5Y cells", 109.90],
  ["COC(=O)Nc1nc2ccc(Oc3ccc(NC(=O)Nc4cc(C(F)(F)F)ccc4F)cc3)cc2n1C", "SH-SY5Y cells", 60.83],
  ["CCCc1ccc(S(=O)(=O)NC2CCN(c3ccnc(Nc4ccc(OC)cc4)n3)C2)cc1 (centres unmarked)", "SH-SY5Y cells", 116.08],
  ["Nc1ncc(-c2cn[nH]c2)c2scc(-c3ccc4c(c3)CCN4C(=O)Cc3ccccc3)c12 [UNC10225500A]", "SH-SY5Y cells", 110.94]
]}

* * *

Parameter AK: see the listing below.
- Tested on: SH-SY5Y cells
- procedure-summary: AK (adenylate kinase) release ToxiLight cytotoxicity assay; further: reference of the scale not given here
- experimental-setup: PKIS2 primary screening
measurement-type: AK

{"columns": ["compound", "measurement-type", "numeric-readout"],
 "data": [
  ["Cn1cc(-c2ccc3c(c2)CCN3C(=O)Cc2cccc(C(F)(F)F)c2)c2c(N)ncnc21 [UNC10225165A]", "AK", 93.68],
  ["O=C(Nc1ccc2c(c1)OCO2)NC1CCN(c2ccnc(NCc3ccc(F)cc3)n2)CC1", "AK", 102.69],
  ["Nc1cccc(-c2ccc3c(N)n[nH]c3c2)c1", "AK", 94.13],
  ["COc1cc2nccc(Nc3ccc(NC(=O)c4ccc(C)cc4)c(O)c3)c2cc1OC.Cl [UNC10225013A]", "AK", 100.53]
]}

* * *

- System: SH-SY5Y cells
- experimental-setup: PKIS2 primary screening, DQ Red BSA spot count

{"columns": ["molecule", "DQ Spot"],
 "data": [
  ["Cc1n[nH]c2cc(Nc3ccnc(Nc4cccc(CN5CCOCC5)c4)n3)ccc12", 112.57],
  ["COc1ccc(Nc2nccc(NCCNC(=O)c3cc4ccccc4s3)n2)cc1", 107.99],
  ["CN(C)CCOc1ccc(-c2cc(-c3ccc(Cl)c(O)c3)c(-c3ccncc3)[nH]2)cc1.Cl.Cl [UNC10225395A]", 40.46],
  ["COc1ccc(CNC(=O)NC2CCN(c3ccnc(Nc4ccc(OC)cc4)n3)C2)cc1 (centres unmarked)", 81.20],
  ["Cc1cc(N2Cc3ccccc3C2)nc(Nc2ccc(S(=O)(=O)N3CCOCC3)cc2)n1", 76.32],
  ["Cl.c1ccc(-c2ccc3c(Nc4ccc5[nH]ncc5c4)ccnc3c2)nc1 [UNC10225007A]", 57.65],
  ["O=C(NC1CCN(c2ccnc(Nc3ccc(F)cc3)n2)C1)c1cc2ccccc2s1 (centres unmarked)", 96.75],
  ["Cc1cc(-c2ccnc(Nc3cccc(C#N)c3)n2)cc(C)c1O", 78.51]
]}

* * *

- System: SH-SY5Y cells
- procedure-summary: Nuclear count from microscopy images (cellular growth and toxicity); further: reference of the scale not given here
- experimental-setup: PKIS2 primary screen
Please assign false whenever Nuclear Count is at or above 100, and true whenever it is below.

{"columns": ["molecule", "assigned-category"],
 "data": [
  ["O=C(Nc1c(F)cccc1F)c1cc(C(=O)c2ccccc2F)c[nH]1 [UNC10225351A]", "false"],
  ["O=c1[nH]cc(-c2ccc(N3CCOCC3)cc2)c2sc(-c3cn[nH]c3)cc12 [UNC10225158A]", "true"],
  ["O=c1[nH]cc(-c2ccc(O)cc2)c2sc(-c3ccncc3)cc12 [UNC10225166A]", "false"],
  ["CCN(CC)CCOc1ccc(Nc2ncc3cc(-c4c(Cl)cccc4Cl)c(=O)n(C)c3n2)cc1 [UNC10225459A]", "true"],
  ["Cc1c(Cn2c(C)nn3c(=O)cc(N4CCOC(C)C4)nc23)cccc1C(F)(F)F (centres unmarked) [UNC10225005A]", "false"],
  ["COc1ccccc1CNC(=O)c1cc(C(=O)c2ccccc2C)c[nH]1 [UNC10225294A]", "false"],
  ["NS(=O)(=O)c1cccc(N/C=C2\\C(=O)Nc3ccc(S(=O)(=O)Cc4c(Cl)cccc4Cl)cc32)c1 [UNC10225298A]", "false"],
  ["O=C(NCc1cccs1)c1cc(C(=O)c2c(Cl)cccc2Cl)c[nH]1 [UNC10225502A]", "false"]
]}

* * *

- Tested on: endogenous TFE3
- procedure-summary: TFE3 nuclear translocation, immunocytochemistry high-content imaging
- Type: cell-based
- experimental-setup: PKIS2 primary screening
TFE3 % below 10% gives 0; TFE3 % at or above it gives 1.

{"columns": ["molecule", "assigned-category"],
 "data": [
  ["COc1ccc(NC(=O)c2ccc(-c3cc(-c4nnc(C)o4)ccc3C)cc2)cc1 [UNC10225475A]", 1],
  ["O=C(Nc1cccc(-c2nn3ccccc3c2-c2ccnc(Nc3cccc(C(F)(F)F)c3)n2)c1)c1c(F)cccc1F [UNC10225325A]", 1],
  ["FC(F)(F)c1ccc(/C=C/c2cncnc2Nc2ccc3[nH]c(Cc4ccccc4)nc3c2)cc1 [UNC10225096A]", 1],
  ["COc1cccc(NC(=O)NC2CCN(c3ccnc(Nc4cc(OC)c(OC)c(OC)c4)n3)C2)c1 (stereo not shown) [GSK1379763]", 1],
  ["Fc1ccc(-c2nn3c(OCC(F)(F)F)cccc3c2-c2ccncc2)cc1 [UNC10225249A]", 0],
  ["COc1cc2ncnc(Nc3ccc4nc(-c5ccccc5)[nH]c4c3)c2cc1OC.Cl [UNC10225504A]", 1],
  ["COc1ccc(NC(=O)Nc2ccc(C)c(-c3ccc(C(=O)Nc4ccncc4)cc3)c2)cc1 [UNC10225445A]", 1],
  ["COc1ccc(Nc2nccc(N3CCC(NC(=O)C(C)c4ccc(Cl)cc4)CC3)n2)cc1 (stereo not shown) [GSK1379812]", 1],
  ["O=C(NCCNc1ccnc(NCc2ccc(F)cc2)n1)c1cc2ccccc2s1 [GSK1379944]", 1],
  ["COC(=O)Nc1nc2ccc(Oc3ccc(NC(=O)Nc4cc(C(F)(F)F)ccc4F)cn3)cc2[nH]1 [GW681170]", 1],
  ["C[C@@H]1CC[C@@H](C(=O)Nc2ccccc2)CN1c1cc(-c2ccc3c(N)n[nH]c3c2)nc(N)n1 [GSK2286062]", 0],
  ["CC[C@@H]1CO[C@H](C(=O)Nc2ccccc2)CN1c1cc(-c2ccc3c(N)n[nH]c3c2)nc(NC)n1 [GSK2376236]", 0]
]}

* * *

Parameter Nuclear Count: see the listing below.
- System: SH-SY5Y cells
- procedure-summary: Nuclear count from microscopy images (cellular growth and toxicity); further: reference of the scale not given here
- experimental-setup: PKIS2 primary screening

{"columns": ["compound", "Nuclear Count"],
 "data": [
  ["CN(c1ccc(NC(=O)Nc2cc(C(F)(F)F)ccc2F)cc1)c1ccnc(Nc2ccc(S(N)(=O)=O)cc2)n1", 46.13],
  ["Cc1ccccc1Cn1ccn2c(=O)cc(N3CCOCC3)nc12 [UNC10225355A]", 89.36],
  ["COc1nccc(-c2c(-c3ccc(F)cc3)ncn2CCCN2CCOCC2)n1 [UNC10225213A]", 107.77],
  ["OCCCNc1nccc(-c2c(-c3cccc(C(F)(F)F)c3)nn3cc(C(F)(F)F)ccc23)n1 [UNC10225352A]", 112.73],
  ["CN1CCN(CCNc2nc3ccc(Oc4ccc(NC(=O)Nc5cc(C(F)(F)F)ccc5F)cc4)cc3[nH]2)CC1", 72.38],
  ["COc1ccc(Nc2nccc(N3CCC(NC(=O)C(C)c4ccc(Cl)cc4)CC3)n2)cc1 (centres unmarked)", 97.15],
  ["Cc1ccc(NC(=O)c2cccc(N3CCCCC3)c2)cc1-c1ccc(C(=O)NCC2CC2)cc1 [UNC10225021A]", 118.95],
  ["CS(=O)(=O)CCNCc1nc(-c2ccc3ncnc(Nc4ccc(OCc5ccccc5)c(Cl)c4)c3c2)cs1.Cl [UNC10225279B]", 87.19]
]}

* * *

- Test system: SH-SY5Y cells
- procedure-summary: Nuclear count from microscopy images (cellular growth and toxicity); further: reference of the scale not given here
- experimental-setup: PKIS2 primary screening
Please assign 0 whenever Nuclear Count is at or above 90, and 1 whenever it is below.

{"columns": ["molecule", "assigned-category"],
 "data": [
  ["COC(=O)Nc1nc2ccc(Oc3ccc(NC(=O)Nc4cc(F)ccc4F)cc3)cc2[nH]1 [GW701424]", 1],
  ["CCNCC(Cc1ccccc1)NC(=O)c1cc(Br)c(-c2ccnc3[nH]ccc23)s1.Cl.Cl (centres unmarked) [UNC10225436A]", 1],
  ["COc1cc2ncn(-c3cc(OCc4sccc4Cl)c(C(N)=O)s3)c2cc1OC [UNC10225153A]", 1],
  ["COc1cc2ncnc(Nc3ccc(OCc4ccccc4Br)c(Cl)c3)c2cc1OC.Cl [UNC10225261A]", 0],
  ["O=C(Nc1ccc(Oc2ccc3nc(NC(=O)c4ccco4)[nH]c3c2)cc1)Nc1cc(C(F)(F)F)ccc1F [GW683134]", 1],
  ["CN1C(=O)C(Nc2ccccc2)=C(c2ccccc2)C1=O [UNC10225242A]", 0],
  ["CCOC(=O)N1CCC(n2cnc(-c3ccc(F)cc3)c2-c2ccnc(N)n2)CC1 [UNC10225132A]", 0],
  ["Fc1cc(Cl)ccc1Nc1ccnc2cc(-c3ccc(CN4CCSCC4)o3)ccc12 [UNC10225290A]", 0],
  ["CN(C)CCOc1ccc(-c2cc(-c3c[nH]nc3-c3ccccn3)ccn2)cc1 [UNC10225226A]", 1],
  ["O=c1cc(N2CCOCC2)nc2n(Cc3ccccc3F)ccn12 [UNC10225231A]", 0],
  ["CC(C)c1nc(-c2cccc(NS(=O)(=O)c3c(F)cccc3F)c2)c(-c2ccnc(Nc3ccc(N4CCOCC4)nc3)n2)s1.Cl [UNC10225142A]", 0],
  ["O=C(Nc1ccc2c(c1)OCO2)NC1CCN(c2ccnc(NCc3ccc(F)cc3)n2)CC1 [GSK1379859]", 0],
  ["COc1ccc(Nc2nccc(N3CCC(NC(=O)c4cc5ccccc5s4)C3)n2)cc1 (centres unmarked) [GSK1379738]", 0],
  ["Cl.Cl.NC(CNC(=O)c1cc(Br)c(-c2ccnc3[nH]ccc23)s1)c1ccccc1 (centres unmarked) [UNC10225176A]", 1],
  ["Nc1nc(N)c2nc(-c3ccccc3)[nH]c2n1 [UNC10225149A]", 0],
  ["NC(=O)c1cccc(Nc2nccc(Nc3ccc(Oc4cccc(Cl)c4)c(Cl)c3)n2)c1 [GW659008]", 1],
  ["CC(C)S(=O)(=O)N1CCN(Cc2ccc3c(c2)nc(NC(=O)c2ccsc2)n3C[C@H](O)c2ccccc2)CC1 [GW635815]", 0]
]}
